Each recorded value in this set is attributed to paper PMC8315004.

Record form. Attribute: inhibition. Fill in for each entry.
# SYSTEM_TESTED: SARS-CoV-2 M^pro (Severe acute respiratory syndrome coronavirus 2, UniProt P0DTD1)
# ASSAY_DETAILS: biochemical
# Design: dose or concentration left out as unconfirmed
# CONDITION_DETAILS: initial screen, Table S4; read-out: Normalized Percent FRET inhibition
Numbers only, in %.

# example entries with known answers
• CCOC(=O)N[C@@H]1CC[C@@H]2[C@@H](C1)C[C@H]1C(=O)O[C@H](C)[C@H]1[C@H]2/C=C/c1ccc(-c2cccc(F)c2)cn1 = -0.416
• Cc1cccc(C)c1OCC(=O)N[C@@H](Cc1ccccc1)[C@@H](O)C[C@H](Cc1ccccc1)NC(=O)[C@H](C(C)C)N1CCCNC1=O = 18.2
• COc1ccc2nc3cc(Cl)ccc3c(Nc3cc(CN4CCCC4)c(O)c(CN4CCCC4)c3)c2n1 = -8.33
• CC1=C(C(=O)OC(C)C)C(c2cccc([N+](=O)[O-])c2)C(C(=O)OC2CN(C(c3ccccc3)c3ccccc3)C2)=C(N)N1 (stereo not drawn) = 8.17
• CC1(C)S[C@@H]2[C@H](NC(=O)[C@H](NC(=O)N3CCNC3=O)c3ccccc3)C(=O)N2[C@H]1C(=O)O [Azlocillin sodium] = -0.915

The value of inhibition measured for the compound CC1(C)O[C@@H]2C[C@H]3[C@@H]4C[C@H](F)C5=CC(=O)C=C[C@]5(C)[C@@]4(F)[C@@H](O)C[C@]3(C)[C@]2(C(=O)CO)O1 [Fluocinolone acetonide] turned out to be 0.0249

* * *

# SYSTEM_TESTED: SARS-CoV-2 M^pro (Severe acute respiratory syndrome coronavirus 2, UniProt P0DTD1)
# ASSAY_DETAILS: Mpro substrate cleavage by gel electrophoresis (SDS-PAGE) and densitometry
# Assay type: biochemical
# CONDITION_DETAILS: normalized gel densitometry data (red values of Figure 2D); read-out: IC50 against Mpro, gel electrophoresis and densitometry
VALUE_TYPE: pIC50
Answers are plain numbers, as −log10 of the molar value.

Sample records with pIC50:
• CN(C)[C@@H]1C(O)=C(C(N)=O)C(=O)[C@@]2(O)C(O)=C3C(=O)c4c(O)cccc4[C@@](C)(O)[C@H]3C[C@@H]12 [Tetracycline] = 4.42
• CCOc1nc2cccc(C(=O)OC(C)OC(=O)OC3CCCCC3)c2n1Cc1ccc(-c2ccccc2-c2nnn[nH]2)cc1 (stereo not shown) [Candesartan Cilexetil] = 4.11

Then this molecule:
Field pIC50 (SARS-CoV-2 M^pro (Severe acute respiratory syndrome coronavirus 2, UniProt P0DTD1)), entry CN(C)c1cc(NC(=O)CNC(C)(C)C)c(O)c2c1C[C@H]1C[C@H]3[C@H](N(C)C)C(O)=C(C(N)=O)C(=O)[C@@]3(O)C(O)=C1C2=O [Tigecycline] : 4.54

* * *

# SYSTEM_TESTED: ACE2-RBD binding (SARS-CoV-2 RBD / human ACE2-Fc) (Severe acute respiratory syndrome coronavirus 2, UniProt P0DTC2)
# ASSAY_DETAILS: biochemical
# CONDITION_DETAILS: RBD pre-treated with 50 μM compound; DMSO only 0.3044
VALUE_TYPE: RMAX of ACE2-RBD binding
One number for each entry.

Solved cases below.
* C#Cc1cccc(Nc2ncnc3cc4c(cc23)OCCOCCOCCO4)c1 | 0.2406
* C#C[C@]1(O)CC[C@H]2[C@@H]3CCC4=CC(=O)CCC4=C3C=C[C@@]21CC | 0.2366
* CS(=O)(=O)CCNCc1ccc(-c2ccc3ncnc(Nc4ccc(OCc5cccc(F)c5)c(Cl)c4)c3c2)o1 | 0.2344

Now look at this entry.
Lab book: RMAX of ACE2-RBD binding of COc1ccc(-c2ccc3cc(C(=O)O)ccc3c2)cc1C12CC3CC(CC(C3)C1)C2 noted as 0.2322

* * *

# SYSTEM_TESTED: SARS-CoV-2 M^pro (Severe acute respiratory syndrome coronavirus 2, UniProt P0DTD1)
# ASSAY_DETAILS: biochemical
# CONDITION_DETAILS: initial screen, 100 μM of drug, Table S4
VALUE_TYPE: Normalized Percent FRET inhibition (%)
Give bare numbers, in %.

• CC(=O)Nc1cccc(-n2c(=O)n(C3CC3)c(=O)c3c(Nc4ccc(I)cc4F)n(C)c(=O)c(C)c32)c1.C[S+](C)[O-] [Trametinib DMSO solvate] = 1.516
• CC(C)CN(C[C@@H](O)[C@H](Cc1ccccc1)NC(=O)O[C@H]1CO[C@H]2OCC[C@H]21)S(=O)(=O)c1ccc(N)cc1.CCO [Darunavir Ethanolate] = -1.838
• Nc1nc(=O)c2c([nH]1)NC[C@H](CNc1ccc(C(=O)N[C@@H](CCC(=O)[O-])C(=O)[O-])cc1)N2C=O.[Ca+2] [Calcium Levofolinate] = 13

Required: Normalized Percent FRET inhibition, one value per compound below.
1. OC[C@H]1O[C@H](O[C@H]2[C@H](O)[C@@H](O)[C@@H](O[C@H]3[C@H](O)[C@@H](O)[C@@H](O[C@H]4[C@H](O)[C@@H](O)C(O)O[C@@H]4CO)O[C@@H]3CO)O[C@@H]2CO)[C@H](O)[C@@H](O)[C@@H]1O (stereo partly drawn)
2. CO[C@H]1C[C@H](O[C@H]2CC[C@]3(C)[C@H]4CC[C@]5(C)[C@@H](C6=CC(=O)OC6)CC[C@]5(O)[C@@H]4CC[C@]3(O)C2)O[C@H](C)[C@H]1O[C@@H]1O[C@H](CO)[C@@H](O)[C@H](O)[C@H]1O
3. CCc1c2c(nc3ccc(OC(=O)N4CCC(N5CCCCC5)CC4)cc13)-c1cc3c(c(=O)n1C2)COC(=O)[C@]3(O)CC.Cl.O.O.O [Irinotecan hydrochloride trihydrate]

# output
[-0.9055, -1.536, -2.22]

* * *

# SYSTEM_TESTED: ACE2-RBD binding (SARS-CoV-2 RBD / human ACE2-Fc) (Severe acute respiratory syndrome coronavirus 2)
# ASSAY_DETAILS: biochemical
# CONDITION_DETAILS: pre-treatment with 50 μM compound; from Rmax with vs without compound
VALUE_TYPE: inhibition at 50 µM

- C#Cc1cccc(Nc2ncnc3cc4c(cc23)OCCOCCOCCO4)c1: 21%

Return reported inhibition at 50 µM values for all items listed beneath this line.
1. COc1ccc(-c2ccc3cc(C(=O)O)ccc3c2)cc1C12CC3CC(CC(C3)C1)C2
2. CS(=O)(=O)CCNCc1ccc(-c2ccc3ncnc(Nc4ccc(OCc5cccc(F)c5)c(Cl)c4)c3c2)o1
3. C#C[C@]1(O)CC[C@H]2[C@@H]3CCC4=CC(=O)CCC4=C3C=C[C@@]21CC

# output
["23.8%", "23%", "22%"]

* * *

Task for the reader: assign each of the following compounds its reported inhibition.
# SYSTEM_TESTED: SARS-CoV-2 M^pro (Severe acute respiratory syndrome coronavirus 2, UniProt P0DTD1)
# ASSAY_DETAILS: biochemical
# Design: dose or concentration left out as unconfirmed
# CONDITION_DETAILS: initial screen, Table S4; read-out: Normalized Percent FRET inhibition
One number for each entry, in %.

Consider the following illustrative entries.
* COc1cc2nccc(Oc3ccc(NC(=O)C4(C(=O)Nc5ccc(F)cc5)CC4)cc3)c2cc1OC [Cabozantinib Malate] | 0.386
* CC1(C)[C@@H](O)CC[C@]2(C)[C@H]3C(=O)C=C4[C@@H]5C[C@@](C)(C(=O)O)CC[C@]5(C)CC[C@@]4(C)[C@]3(C)CC[C@@H]12 [Enoxolone] | 4.01

Now let's try a different one.
inhibition for CCCc1nc(C(C)(C)O)c(C(=O)OCc2oc(=O)oc2C)n1Cc1ccc(-c2ccccc2-c2nnn[nH]2)cc1 [Olmesartan Medoxomil] is 2.83

* * *

Kindly state IC50 for each of the entries shown.
# System: SARS-CoV-2 expressing the mNeon reporter gene
# ASSAY_DETAILS: microbe, parasite or virus in culture
# Assay type: cell-based
# CONDITION_DETAILS: Severe acute respiratory syndrome coronavirus 2, Vero, 18 h; read-out: IC50 against SARS-CoV-2

Please review the following examples before continuing.
* CS(=O)(=O)CCNCc1ccc(-c2ccc3ncnc(Nc4ccc(OCc5cccc(F)c5)c(Cl)c4)c3c2)o1 | 31.1 µM
* COc1ccc(-c2ccc3cc(C(=O)O)ccc3c2)cc1C12CC3CC(CC(C3)C1)C2 | ~10 µM

Could you now consider this next compound?
For this compound ( CCOc1nc2cccc(C(=O)OC(C)OC(=O)OC3CCCCC3)c2n1Cc1ccc(-c2ccccc2-c2nnn[nH]2)cc1 (stereo not drawn) ), measured IC50 is ~10 µM

* * *

# SYSTEM_TESTED: SARS-CoV-2 M^pro (Severe acute respiratory syndrome coronavirus 2)
# ASSAY_DETAILS: biochemical
# Set-up: dose or concentration left out as unconfirmed
# CONDITION_DETAILS: initial screen, Table S4; read-out: Normalized Percent FRET inhibition
Where a name gives a salt, the structure may show the parent alone.
VALUE_TYPE: inhibition (%)
Numbers only, in %.

Worked examples, 3 molecules total:
• CC(C)OC(=O)[C@H](C)N[P@](=O)(OC[C@H]1O[C@@H](n2ccc(=O)[nH]c2=O)[C@](C)(F)[C@@H]1O)Oc1ccccc1 = -0.4
• CN(c1nccc(=O)[nH]1)C1CCN(c2nc3ccccc3n2Cc2ccc(F)cc2)CC1 = -0.317
• Cc1cc2nc3c(=O)[nH]c(=O)nc-3n(C[C@H](O)[C@H](O)[C@H](O)COP(=O)(O)OP(=O)(O)OC[C@H]3O[C@@H](n4cnc5c(N)ncnc54)[C@H](O)[C@@H]3O)c2cc1C [Flavin Adenine Dinucleotide Disodium] = 149

For each of the molecules below, state inhibition.
1. CCOc1nc2cccc(C(=O)OC(C)OC(=O)OC3CCCCC3)c2n1Cc1ccc(-c2ccccc2-c2nnn[nH]2)cc1 (stereo not shown)
2. Cc1cc(C#N)cc(C)c1Oc1nc(Nc2ccc(C#N)cc2)nc(N)c1Br
3. C#C[C@]1(O)CC[C@H]2[C@@H]3CCc4cc(OC)ccc4[C@H]3CC[C@@]21C
4. CC1=C(C(=O)OCCN(Cc2ccccc2)c2ccccc2)C(c2cccc([N+](=O)[O-])c2)C(P2(=O)OCC(C)(C)CO2)=C(C)N1 (stereo not shown)

# output
1: 153; 2: -0.895; 3: -1.1; 4: -1.16

# per-item lookup of inhibition; items listed below
1. COc1cc(N2CCC(N3CCN(C)CC3)CC2)ccc1Nc1ncc(Cl)c(Nc2ccccc2P(C)(C)=O)n1
2. COc1ccc(-c2cc(=O)c3c(O)cc(O[C@@H]4O[C@H](CO[C@@H]5O[C@@H](C)[C@H](O)[C@@H](O)[C@H]5O)[C@@H](O)[C@H](O)[C@H]4O)cc3o2)cc1O
3. Cc1c(O)cccc1C(=O)N[C@@H](CSc1ccccc1)[C@H](O)CN1C[C@H]2CCCC[C@H]2C[C@H]1C(=O)NC(C)(C)C [Nelfinavir Mesylate]

# output
1: 5.97; 2: -0.378; 3: 30.8

Hi! Can you tell me inhibition for each of these molecules?
1. C=CC(=O)N1CCC[C@@H](n2nc(-c3ccc(Oc4ccccc4)cc3)c3c(N)ncnc32)C1
2. OCCOCCN1CCN(C(c2ccccc2)c2ccc(Cl)cc2)CC1 (stereo not shown) [Hydroxyzine Pamoate]
3. CCOc1nc2cccc(C(=O)OCc3oc(=O)oc3C)c2n1Cc1ccc(-c2ccccc2-c2noc(=O)[nH]2)cc1

# output
1. -1.91
2. 12.9
3. -1.99
